# Test system: NCI-H226 lung
# procedure summary: NCI tumour cell line growth inhibition, 48 h
endpoint name: TGI (µM)
Form entry: value (µM) — number only.

Reference set, count: 3
>>> value_measured("COC(=O)C1=Nc2ccc(F)cc2/C1=C/c1sc(=S)[nH]c1O")
10.3
>>> value_measured("CN(CCCNC(=O)c1c2ccc3ccccc3c2nn1C)CCCNC(=O)c1c2ccc3ccccc3c2nn1C")
31.1
>>> value_measured("O=C(CN(/C=C/C(=O)C(F)(F)F)c1ccccc1)c1ccc(F)cc1")
47.8

Ask | Let me know recorded TGI for `O=S(=O)(/N=C(\NO)Nc1ccc(Cl)cc1)c1cc(S(=O)(=O)c2ccccc2)cs1` , thanks.
Reply | 51.6

Values from PubChem BioAssay (NCI)
